- SYSTEM: DYRK2 kinase (Homo sapiens)
- ASSAY_SUMMARY: DYRK2 kinase activity analysis assay (33P-ATP, DYRKtide substrate, P81 filter paper)
- Type: biochemical
- CONDITION: IC50 (nM), 2 hours at room temperature
MEASURE_NAME: IC50 (nM)
Reply with just the number (in nM).

Request: Which IC50 is reported for this molecule? CN(C)c1nc2cc(-c3nc(Nc4ccc(C(=O)N5CCN(C(=O)OC(C)(C)C)CC5)nc4)ncc3F)ccc2s1 [Example 31]
Response: 590

* * *

- SYSTEM: UniProt Q92630
- Sequence (Q92630 1-601): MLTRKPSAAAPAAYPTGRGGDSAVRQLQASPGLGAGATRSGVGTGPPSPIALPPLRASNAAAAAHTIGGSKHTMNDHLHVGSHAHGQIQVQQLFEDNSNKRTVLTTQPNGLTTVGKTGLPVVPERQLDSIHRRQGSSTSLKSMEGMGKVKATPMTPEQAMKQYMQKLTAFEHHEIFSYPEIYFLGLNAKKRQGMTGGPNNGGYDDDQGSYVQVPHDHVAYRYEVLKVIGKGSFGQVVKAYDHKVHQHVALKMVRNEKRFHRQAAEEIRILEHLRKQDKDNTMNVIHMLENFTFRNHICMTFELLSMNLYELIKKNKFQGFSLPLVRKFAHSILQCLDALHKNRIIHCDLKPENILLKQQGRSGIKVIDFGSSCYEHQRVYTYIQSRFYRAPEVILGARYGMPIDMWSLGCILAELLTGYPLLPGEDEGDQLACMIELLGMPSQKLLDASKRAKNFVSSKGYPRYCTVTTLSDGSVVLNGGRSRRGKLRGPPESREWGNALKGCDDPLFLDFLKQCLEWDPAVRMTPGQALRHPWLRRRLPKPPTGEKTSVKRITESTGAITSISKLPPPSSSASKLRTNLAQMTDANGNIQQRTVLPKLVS
- ASSAY_SUMMARY: DYRK2 kinase activity analysis assay (33P-ATP, DYRKtide substrate, P81 filter paper)
- Format: biochemical
- CONDITION: 2 hours at room temperature, read-out: IC50
Counter-ions that a name gives are not always drawn.
MEASURE_NAME: pIC50
Bear in mind: pIC50 is minus log10 of a mol/L concentration; give just that figure.

Request: Give pIC50 (UniProt Q92630) of the following compound: CCOC(=O)N1CCN(C(=O)c2ccc(Nc3ncc(F)c(-c4ccc5scnc5c4)n3)nc2)CC1 [Example 18]
Response: 7.54

Request: Entry to check: CC(=O)N1CCN(C(=O)c2ccc(Nc3ncc(F)c(-c4ccc5scnc5c4)n3)nc2)CC1 [Example 15]
Response: 7.55

Request: Entry to check: CCN1CCN(Cc2ccc(Nc3ncc(F)c(-c4ccc5scnc5c4)n3)nc2)CC1 [Example 12]
Response: 6.37

Request: Entry to check: Cc1cnc(Nc2ccc(CN3CCNCC3)cn2)nc1-c1ccc2scnc2c1 [Example 2, hydrochloride]
Response: 5.85
